Cited source for all entries: patent US20260355212A1

Exercise: for every item that follows, state its recorded pIC50.
# assayed-system: HCoV-HKU1 Mpro (Human coronavirus HKU1)
# Sequence (P0C6X2 3335-3637 limits assumed): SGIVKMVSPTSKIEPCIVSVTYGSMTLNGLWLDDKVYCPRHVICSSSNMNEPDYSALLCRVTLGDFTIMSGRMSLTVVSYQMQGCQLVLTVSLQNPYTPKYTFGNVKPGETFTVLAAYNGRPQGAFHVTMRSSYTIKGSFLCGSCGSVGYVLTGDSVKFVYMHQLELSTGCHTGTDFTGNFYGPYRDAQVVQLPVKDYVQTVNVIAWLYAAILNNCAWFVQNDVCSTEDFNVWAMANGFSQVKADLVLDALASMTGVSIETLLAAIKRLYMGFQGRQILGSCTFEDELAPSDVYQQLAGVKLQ
# measurement-protocol: HCoV-HKU1 Mpro enzymatic inhibition assay (fluorescence)
# Assay type: biochemical
// pIC50 here means minus log10 of the molar concentration (mol/L)

**Q:** May I ask what pIC50 has been recorded for `CC1(C)[C@@H]2[C@@H](C(=O)N[C@H](C=O)C[C@@H]3CCNC3=O)N(C(=O)C3CCCC3)C[C@@H]21` ?
**A:** 6.39

**Q:** May I ask what pIC50 has been recorded for `CC1(C)[C@@H]2[C@@H](C(=O)N[C@H](C=O)C[C@@H]3CCNC3=O)N(C(=O)CC3CCCCC3)C[C@@H]21` ?
**A:** 7.59

**Q:** May I ask what pIC50 has been recorded for `O=C[C@H](C[C@@H]1CCNC1=O)NC(=O)[C@@H]1[C@H]2C[C@H]2CN1C(=O)c1cc2ccccc2[nH]1` ?
**A:** 7.06

**Q:** May I ask what pIC50 has been recorded for `CC1(C)[C@@H]2[C@@H](C(=O)N[C@H](C=O)C[C@@H]3CCCNC3=O)N(C(=O)c3cc4cccc(Cl)c4[nH]3)C[C@@H]21` ?
**A:** 7.52

**Q:** May I ask what pIC50 has been recorded for `CC1(C)[C@@H]2[C@@H](C(=O)N[C@H](C=O)C[C@@H]3CCNC3=O)N(C(=O)c3cc4cccc(C(F)(F)F)c4[nH]3)C[C@@H]21` ?
**A:** 7.27

**Q:** May I ask what pIC50 has been recorded for `CC(C)c1ccc(Cl)c2[nH]c(C(=O)N3C[C@H]4[C@@H]([C@H]3C(=O)N[C@H](C=O)C[C@@H]3CCNC3=O)C4(C)C)cc12` ?
**A:** 7.67
